The reported numbers originate from ChEMBL document CHEMBL1821578.

Biological target: Prostaglandin G/H synthase 2 (Homo sapiens)
Assay: Inhibition of human recombinant COX2 expressed in Sf9 cells at 100 ug/mL
Property Label: inhibition (%)

- Oc1cc(O)c2c(c1)O[C@H](c1ccc(O)c(O)c1)[C@H](O)[C@H]2c1c(O)c2c(c3c1O[C@]1(c4ccc(O)c(O)c4)Oc4cc(O)cc(O)c4[C@H]3[C@H]1O)O[C@H](c1ccc(O)c(O)c1)[C@H](O)[C@H]2c1c(O)cc(O)c2c1O[C@H](c1ccc(O)c(O)c1)[C@H](O)C2 (mixture of isomers): 86

(1) Oc1cc(O)c2c(c1)O[C@@]1(c3ccc(O)c(O)c3)Oc3cc(O)c4c(c3[C@@H]2[C@H]1O)O[C@H](c1ccc(O)c(O)c1)[C@H](O)[C@H]4c1c(O)cc(O)c2c1O[C@H](c1ccc(O)c(O)c1)[C@H](O)C2 (mixture of isomers)
(2) Oc1cc(O)c2c(c1)O[C@@]1(c3ccc(O)c(O)c3)Oc3cc(O)c4c(c3[C@@H]2[C@H]1O)O[C@H](c1ccc(O)c(O)c1)[C@H](O)[C@H]4c1c(O)cc(O)c2c1O[C@H](c1ccc(O)c(O)c1)[C@@H](O)C2 (mixture of isomers)
Identify the entry with the smaller inhibition: 1 or 2 . Mark your selection by writing its label.
1

====

Molecular target: Prostaglandin G/H synthase 2 (Homo sapiens) (UniProt P35354)
Sequence (P35354 whole entry): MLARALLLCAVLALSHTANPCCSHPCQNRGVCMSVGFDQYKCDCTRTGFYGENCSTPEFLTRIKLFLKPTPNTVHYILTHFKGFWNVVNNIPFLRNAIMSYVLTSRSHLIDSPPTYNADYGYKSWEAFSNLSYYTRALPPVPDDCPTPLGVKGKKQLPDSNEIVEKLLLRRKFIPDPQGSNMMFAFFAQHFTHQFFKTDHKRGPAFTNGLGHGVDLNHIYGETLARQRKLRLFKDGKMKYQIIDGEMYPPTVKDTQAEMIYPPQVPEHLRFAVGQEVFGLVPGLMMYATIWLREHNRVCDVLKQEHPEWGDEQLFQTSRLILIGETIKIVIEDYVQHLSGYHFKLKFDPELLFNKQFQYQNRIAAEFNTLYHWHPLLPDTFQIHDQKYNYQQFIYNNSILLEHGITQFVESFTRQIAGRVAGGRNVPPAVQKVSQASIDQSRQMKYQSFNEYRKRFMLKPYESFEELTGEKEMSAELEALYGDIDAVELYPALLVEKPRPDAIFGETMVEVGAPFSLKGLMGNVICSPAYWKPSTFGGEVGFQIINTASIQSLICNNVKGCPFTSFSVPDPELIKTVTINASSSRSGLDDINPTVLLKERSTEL
Assay: Inhibition of human recombinant COX2 expressed in Sf9 cells at 1000 ug/mL
Property Label: inhibition (%)

• Oc1cc(O)c2c(c1)O[C@@]1(c3ccc(O)c(O)c3)Oc3cc(O)c4c(c3[C@@H]2[C@H]1O)O[C@H](c1ccc(O)c(O)c1)[C@H](O)[C@H]4c1c(O)cc(O)c2c1O[C@H](c1ccc(O)c(O)c1)[C@@H](O)C2 (mixture of isomers) = 95
• Oc1cc(O)c2c(c1)O[C@H](c1ccc(O)c(O)c1)[C@H](O)[C@H]2c1c(O)c2c(c3c1O[C@]1(c4ccc(O)c(O)c4)Oc4cc(O)cc(O)c4[C@H]3[C@H]1O)O[C@H](c1ccc(O)c(O)c1)[C@H](O)[C@H]2c1c(O)cc(O)c2c1O[C@H](c1ccc(O)c(O)c1)[C@@H](O)C2 (mixture of isomers) = 97
• Oc1cc(O)c2c(c1)O[C@@]1(c3ccc(O)c(O)c3)Oc3cc(O)c4c(c3[C@@H]2[C@H]1O)O[C@H](c1ccc(O)c(O)c1)[C@H](O)[C@H]4c1c(O)cc(O)c2c1O[C@H](c1ccc(O)c(O)c1)[C@H](O)C2 (mixture of isomers) = 86
• Oc1cc(O)c2c(c1)O[C@H](c1ccc(O)c(O)c1)[C@H](O)[C@H]2c1c(O)c2c(c3c1O[C@]1(c4ccc(O)c(O)c4)Oc4cc(O)cc(O)c4[C@H]3[C@H]1O)O[C@H](c1ccc(O)c(O)c1)[C@H](O)[C@H]2c1c(O)cc(O)c2c1O[C@H](c1ccc(O)c(O)c1)[C@H](O)C2 (mixture of isomers) = 94

====

Target: Prostaglandin G/H synthase 2 (Homo sapiens)
Assay: Inhibition of human recombinant COX2 expressed in Sf9 cells at 10 ug/mL
Property Label: inhibition (%)

A selection of reference data follows.
- Oc1cc(O)c2c(c1)O[C@H](c1ccc(O)c(O)c1)[C@H](O)[C@H]2c1c(O)c2c(c3c1O[C@]1(c4ccc(O)c(O)c4)Oc4cc(O)cc(O)c4[C@H]3[C@H]1O)O[C@H](c1ccc(O)c(O)c1)[C@H](O)[C@H]2c1c(O)cc(O)c2c1O[C@H](c1ccc(O)c(O)c1)[C@H](O)C2 (mixture of isomers): 14
- Oc1cc(O)c2c(c1)O[C@H](c1ccc(O)c(O)c1)[C@H](O)[C@H]2c1c(O)c2c(c3c1O[C@]1(c4ccc(O)c(O)c4)Oc4cc(O)cc(O)c4[C@H]3[C@H]1O)O[C@H](c1ccc(O)c(O)c1)[C@H](O)[C@H]2c1c(O)cc(O)c2c1O[C@H](c1ccc(O)c(O)c1)[C@@H](O)C2 (mixture of isomers): 38

(A) Oc1cc(O)c2c(c1)O[C@@]1(c3ccc(O)c(O)c3)Oc3cc(O)c4c(c3[C@@H]2[C@H]1O)O[C@H](c1ccc(O)c(O)c1)[C@H](O)[C@H]4c1c(O)cc(O)c2c1O[C@H](c1ccc(O)c(O)c1)[C@@H](O)C2 (mixture of isomers)
(B) Oc1cc(O)c2c(c1)O[C@@]1(c3ccc(O)c(O)c3)Oc3cc(O)c4c(c3[C@@H]2[C@H]1O)O[C@H](c1ccc(O)c(O)c1)[C@H](O)[C@H]4c1c(O)cc(O)c2c1O[C@H](c1ccc(O)c(O)c1)[C@H](O)C2 (mixture of isomers)
Identify the entry with the smaller inhibition: A or B . Mark your selection by writing its label.
A
(A: 2%, B: 19%)
